TESTED_SYSTEM: T1, retinoblastoma protein (RB) (Homo sapiens, UniProt P06400 1-928)
T1 sequence: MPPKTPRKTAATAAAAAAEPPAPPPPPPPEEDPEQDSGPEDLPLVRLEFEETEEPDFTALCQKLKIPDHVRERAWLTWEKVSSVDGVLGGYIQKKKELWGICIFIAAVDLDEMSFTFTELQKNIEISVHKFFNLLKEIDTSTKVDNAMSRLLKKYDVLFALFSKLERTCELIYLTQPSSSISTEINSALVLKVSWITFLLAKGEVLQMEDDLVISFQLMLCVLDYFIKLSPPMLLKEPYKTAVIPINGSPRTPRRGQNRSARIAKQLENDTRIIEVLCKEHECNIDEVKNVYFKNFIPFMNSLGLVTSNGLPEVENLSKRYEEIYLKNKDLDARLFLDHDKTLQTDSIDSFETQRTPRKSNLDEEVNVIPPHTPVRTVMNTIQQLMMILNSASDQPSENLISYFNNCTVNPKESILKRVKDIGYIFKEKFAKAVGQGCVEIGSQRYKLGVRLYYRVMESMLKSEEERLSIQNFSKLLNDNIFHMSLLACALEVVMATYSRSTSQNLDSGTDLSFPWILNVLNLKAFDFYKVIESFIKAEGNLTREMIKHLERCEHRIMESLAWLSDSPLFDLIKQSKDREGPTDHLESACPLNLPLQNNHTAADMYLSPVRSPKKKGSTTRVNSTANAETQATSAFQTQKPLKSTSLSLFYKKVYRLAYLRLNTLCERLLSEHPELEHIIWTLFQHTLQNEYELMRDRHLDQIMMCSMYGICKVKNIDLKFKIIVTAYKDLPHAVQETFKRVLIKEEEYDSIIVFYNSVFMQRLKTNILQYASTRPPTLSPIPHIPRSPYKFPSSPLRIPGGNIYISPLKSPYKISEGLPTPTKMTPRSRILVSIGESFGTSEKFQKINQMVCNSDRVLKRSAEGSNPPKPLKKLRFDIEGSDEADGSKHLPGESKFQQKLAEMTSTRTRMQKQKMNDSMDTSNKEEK
TEST: ELONA

BINDER	Kd, nM
GGAGGGUGGAGGGAAGGG (structured_RNA) [18E16]	5.1

Ref: paper PMC8159449
